Give IC50 for every item shown.
molecular target: Histamine H1 receptor (Homo sapiens, UniProt P35367); experiment: Antagonist activity at human histamine H1 receptor in SK-N-SH cells assessed as inhibition of histamine-induced calcium flow during phase-II compound dosed after histamine addition by Fura-2 based fluorometric assay; assay type: functional
Sequence (P35367 whole entry): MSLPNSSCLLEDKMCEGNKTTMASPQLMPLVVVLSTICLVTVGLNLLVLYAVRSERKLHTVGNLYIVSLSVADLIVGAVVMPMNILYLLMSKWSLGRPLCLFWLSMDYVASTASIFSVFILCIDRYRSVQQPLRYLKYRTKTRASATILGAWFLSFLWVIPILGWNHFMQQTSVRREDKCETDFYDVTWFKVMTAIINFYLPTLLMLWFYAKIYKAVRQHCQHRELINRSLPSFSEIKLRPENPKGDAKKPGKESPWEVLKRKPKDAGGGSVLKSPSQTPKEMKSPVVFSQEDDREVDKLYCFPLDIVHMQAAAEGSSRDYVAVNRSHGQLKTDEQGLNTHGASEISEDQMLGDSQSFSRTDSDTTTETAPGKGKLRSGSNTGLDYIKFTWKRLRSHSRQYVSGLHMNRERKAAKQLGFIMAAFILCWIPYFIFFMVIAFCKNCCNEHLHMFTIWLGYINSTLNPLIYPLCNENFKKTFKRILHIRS
Your answer should be a plain number; it is taken to be in µM.

State the recorded IC50 for this entry: CN1CCc2c(c3cc(F)ccc3n2CCc2cccnc2)C1
0.93

One more compound: Cc1ccc2c(c1)c1c(n2CCc2ccccn2)CCN(C)C1
10

Would you kindly repeat that for Cc1ccc2c(c1)c1c(n2CCc2ccncc2)CCN(C)C1 ?
3.98

How about this compound: Cc1ccc2c(c1)c1c(n2CCc2cccnc2)CCN(C)C1
3.16

CN1CCc2c(c3ccccc3n2CCc2ccccn2)C1 ?
0.93

Same for CN1CCc2c(c3ccccc3n2CCc2cccnc2)C1
0.41

* * *

molecular target: Histamine H1 receptor (Homo sapiens); experiment: Antagonist activity at human histamine H1 receptor in SK-N-SH cells assessed as inhibition of histamine-induced calcium flow during phase-II compound dosed after histamine addition by Fura-2 based fluorometric assay; format: functional
pIC50: −log10 of the molar value.
Use y when the recorded pIC50 is no lower than 6; use n when it is lower.

Assess whether reported pIC50 for CN1CCc2c(c3ccccc3n2CCc2ccncc2)C1 sits at 6 or higher.
y

Also, CN1CCc2c(c3cc(F)ccc3n2CCc2ccccn2)C1 please.
y

Again, but for Cc1ccc2c(c1)c1c(n2CCc2cnccn2)CCN(C)C1
n

Again, but for CN1CCc2c(c3cc(F)ccc3n2CCc2ccncc2)C1
y

Okay, and CN1CCc2c(c3cc(C(F)(F)F)ccc3n2CCc2ccccn2)C1 ?
n

Item: Cc1ccc2c(c1)c1c(n2CCc2ccc(C)nc2)CCN(C)C1 [LATREPIRDINE]
n

* * *

target: 5-hydroxytryptamine receptor 6 (Homo sapiens, UniProt P50406); assay: Antagonist activity at human recombinant 5-HT6 receptor expressed in HEK293 cells assessed as inhibition of serotonin-induced intracellular cAMP accumulation by LANCE technique; format: functional, cell-based; details: read-out: IC50
Sequence (P50406 whole entry): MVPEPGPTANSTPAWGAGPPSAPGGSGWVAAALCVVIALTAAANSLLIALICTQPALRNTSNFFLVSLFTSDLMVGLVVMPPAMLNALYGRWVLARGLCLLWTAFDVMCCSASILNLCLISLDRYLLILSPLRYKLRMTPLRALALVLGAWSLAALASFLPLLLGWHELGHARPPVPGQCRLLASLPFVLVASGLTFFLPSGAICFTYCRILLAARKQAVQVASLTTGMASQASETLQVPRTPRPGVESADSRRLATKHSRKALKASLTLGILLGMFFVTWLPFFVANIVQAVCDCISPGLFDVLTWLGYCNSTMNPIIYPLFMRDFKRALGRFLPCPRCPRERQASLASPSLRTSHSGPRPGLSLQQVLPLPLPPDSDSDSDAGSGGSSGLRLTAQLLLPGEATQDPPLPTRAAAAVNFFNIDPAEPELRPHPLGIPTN
metric: IC50
A complete answer gives the number followed by the unit.

Report IC50 for Cc1ccc2c(c1)c1c(n2CCc2ccccn2)CCN(C)C1 please.
0.86 µM

Then what about the compound CN1CCc2c(c3cc(C#N)ccc3n2CCc2ccccn2)C1 ?
7.47 µM

Again, but for Cc1ccc2c(c1)c1c(n2CCc2ccc(C)nc2)CCN(C)C1 [LATREPIRDINE]
0.89 µM

What do you get for Cc1ccc2c(c1)c1c(n2CCc2cccnc2)CCN(C)C1 ?
0.44 µM

Now try CN1CCc2c(c3ccccc3n2CCc2cccnc2)C1 .
5.99 µM

What do we get for Cc1ccc(CCn2c3c(c4cc(F)ccc42)CN(C)CC3)cn1 ?
10.7 µM

Same question for CN1CCc2c(c3ccccc3n2CCc2ccccn2)C1 please.
15.8 µM

Ok, now COc1ccc2c(c1)c1c(n2CCc2ccccn2)CCN(C)C1
8.36 µM

Now consider CN1CCc2c(c3cc(C(F)(F)F)ccc3n2CCc2ccncc2)C1 .
6.4 µM

* * *

target: Cholinesterase (Homo sapiens)
Sequence (P06276 whole entry): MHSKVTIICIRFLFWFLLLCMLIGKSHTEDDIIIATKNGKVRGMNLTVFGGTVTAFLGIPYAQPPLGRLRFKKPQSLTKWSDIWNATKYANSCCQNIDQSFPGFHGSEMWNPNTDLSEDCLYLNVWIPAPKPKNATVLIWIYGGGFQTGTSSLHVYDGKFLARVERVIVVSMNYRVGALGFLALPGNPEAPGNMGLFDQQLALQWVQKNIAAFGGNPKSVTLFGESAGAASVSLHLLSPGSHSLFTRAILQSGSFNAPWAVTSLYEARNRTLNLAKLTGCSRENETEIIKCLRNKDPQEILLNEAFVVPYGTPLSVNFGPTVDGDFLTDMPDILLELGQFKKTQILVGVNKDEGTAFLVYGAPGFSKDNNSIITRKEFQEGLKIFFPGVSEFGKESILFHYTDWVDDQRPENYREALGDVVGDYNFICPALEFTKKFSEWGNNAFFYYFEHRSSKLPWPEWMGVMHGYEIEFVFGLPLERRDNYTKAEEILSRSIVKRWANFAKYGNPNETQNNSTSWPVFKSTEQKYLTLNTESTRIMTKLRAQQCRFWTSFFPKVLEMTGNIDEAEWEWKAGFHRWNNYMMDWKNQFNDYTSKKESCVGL
metric: IC50 (µM)
// units = µM; emit number, no label

What value of IC50 has been recorded for this entry: Cc1ccc2c(c1)c1c(n2CCc2ccc(C)nc2)CCN(C)C1 [LATREPIRDINE]
7.9

* * *

biological target: UniProt:P35367; experiment: Antagonist activity at human histamine H1 receptor in SK-N-SH cells assessed as inhibition of histamine-induced calcium level increase during phase-1 compound incubated before histamine addition by Fura-2 based fluorometric assay; assay type: functional, cell-based
Task for the reader: assign each of the following compounds its reported IC50.
Lab book: enter the figure in nM, no units written.

Look at this compound and give its reported IC50. CN1CCc2c(c3cc(Br)ccc3n2CCc2ccccn2)C1
120

Now this one: Cc1ccc2c(c1)c1c(n2CCc2cnccn2)CCN(C)C1
320

Continue with CN1CCc2c(c3cc(F)ccc3n2CCc2ccncc2)C1
120

Likewise for Cc1ccc(CCn2c3c(c4cc(F)ccc42)CN(C)CC3)cn1 ?
110

Consider next the compound Cc1ccc2c(c1)c1c(n2CCc2cccnc2)CCN(C2CCN(C)CC2)C1 in the same way.
2790

Try Cc1ccc2c(c1)c1c(n2CCc2ccncc2)CCN(C)C1 next.
160

And what about the compound CN1CCc2c(c3cc(F)ccc3n2CCc2ccccn2)C1 ?
940

For CN1CCc2c(c3cc(F)ccc3n2CCc2cccnc2)C1 then?
650

Can you handle CN1CCc2c(c3ccccc3n2CCc2ccncc2)C1 next?
120

Now consider CN1CCc2c(c3cc(-c4cccnc4)ccc3n2CCc2ccccn2)C1 .
7160

Okay, and Cc1ccc2c(c1)c1c(n2CCc2ccccn2)CCN(C)C1 ?
500

Further, for Cc1ccc2c(c1)c1c(n2CCc2ccc(C)nc2)CCN(C)C1 [LATREPIRDINE] ?
160

Repeat with COc1ccc2c(c1)c1c(n2CCc2ccccn2)CCN(C)C1
4670

Then CN1CCc2c(c3cc(C(F)(F)F)ccc3n2CCc2ccncc2)C1 ?
220

Try the compound Cc1ccc2c(c1)c1c(n2CCc2ccncc2)CCN(C2CCN(C)CC2)C1
7570

Please answer likewise for CN1CCc2c(c3ccccc3n2CCc2cccnc2)C1
100

And what about the compound COc1ccc2c(c1)c1c(n2CCc2ccncc2)CCN(C)C1 ?
390

Queued: CN1CCc2c(c3cc(C#N)ccc3n2CCc2ccccn2)C1
1290

Would you kindly repeat that for Cc1ccc2c(c1)c1c(n2CCc2cccnc2)CCN(C)C1 ?
500

Item: CN1CCc2c(c3ccccc3n2CCc2ccccn2)C1
1820

Lookup CN1CCc2c(c3cc(C(F)(F)F)ccc3n2CCc2ccccn2)C1
560

* * *

target: UniProt:P50406; assay: Antagonist activity at human recombinant 5-HT6 receptor expressed in HEK293 cells assessed as inhibition of serotonin-induced intracellular cAMP accumulation by LANCE technique; format: functional, cell-based; settings: read-out: IC50
metric: pIC50
For clarity, pIC50 is expressed as the negative log10 of concentration in mol/L.

Looking for the measured pIC50 of CN1CCc2c(c3cc(F)ccc3n2CCc2ccncc2)C1 , can you help?
5.49

Next entry: CN1CCc2c(c3cc(C(F)(F)F)ccc3n2CCc2cccnc2)C1
5.24

Moving on to the next compound: CN1CCc2c(c3ccccc3n2CCc2ccncc2)C1
5.05

* * *

Assignment: determine reported IC50 for the given compounds.
target: Histamine H1 receptor (Homo sapiens, UniProt P35367); experiment: Antagonist activity at human histamine H1 receptor in SK-N-SH cells assessed as inhibition of histamine-induced calcium level increase during phase-1 compound incubated before histamine addition by Fura-2 based fluorometric assay; format: functional, cell-based

IC50 for CN1CCc2c(c3cc(C(=O)O)ccc3n2CCc2ccncc2)C1 ?
> 10 µM

Input CN1CCc2c(c3cc(C(F)(F)F)ccc3n2CCc2cccnc2)C1
> 10 µM

Would you mind doing Cc1ccc2c(c1)c1c(n2CCc2ccccn2)CCN(C2CCN(C)CC2)C1 as well?
> 10 µM
